Source: PubChem BioAssay (NCI)

Test system: HT29 colon
Method Notes: NCI tumour cell line growth inhibition, 48 h
Some molecules, each annotated with its measured TGI.
Measurement Name: TGI (µM)

INSERT INTO measurements (molecule, subject_of_test, result_unit, limit_qualifier, value_reported) VALUES
  ('CCOC(=O)c1ccc(NC2Oc3cc4c(cc3C(c3cc(OC)c(OC)c(OC)c3)C2C)OCO4)cc1 (stereo not drawn)', 'HT29 colon', 'µM', '=', 12.9),
  ('[Cu+2].[Cu+2].[O-]c1ccccc1C=Nc1ccccc1[O-].[O-]c1ccccc1C=Nc1ccccc1[O-]', 'HT29 colon', 'µM', '=', 27.4),
  ('O=C1CCC2(c3ccc(F)cc3)Nc3ccccc3N12 (stereo not drawn)', 'HT29 colon', 'µM', '>', 100);
